- PROTOCOL_DESCRIPTION: physchem
- CONDITION_DETAILS: buffer, pH 2.2
READOUT_KIND: half-life (h)

| QUERY_SMILES | READOUT_KIND | NUMERIC_RESULT |
| --- | --- | --- |
| O=C(CCNc1c2ccccc2nc2ccccc12)OCCN(CCCl)CCCl | half-life | 7.5 |

====

- PROTOCOL_DESCRIPTION: physchem
- CONDITION_DETAILS: buffer, pH 6

| COMPOUND | UNIT_OF_MEASURE | half-life |
| --- | --- | --- |
| O=C(CCNc1c2ccccc2nc2ccccc12)OCCN(CCCl)CCCl [PIC-1] | min | 25 |

The origin of these recorded values is patent US7293985B2.
